# Test: APR_HepG2_P-H2AX_72hr: Apredica 72-hour HepG2 Assay for H2AX Phosphorylation (AID 2282916);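 further: phospho-histone H2A.x immunostain intensity per cell marking DNA damage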
# Recorded Conditions: imaging, actives raise or lower the signal
The source made the active and inactive calls. How the source made its calls: active means hit-call score of the fitted dose curve at least 0.9, where 1 is the maximum; inactive means score below 0.9.
Allowed answers: TRUE = active, FALSE = inactive

Sample answers from the record:
CCCCCCCCOc1ccc(C(=O)c2ccccc2)c(O)c1: FALSE
Cc1oc2c(NC(=O)c3c(Cl)cccc3Cl)cccc2c1C(C)(C)O: FALSE
CC[C@@H]1C[C@H](N(Cc2cc(C(F)(F)F)cc(C(F)(F)F)c2)C(C)=O)c2cc(C(F)(F)F)ccc2N1C(=O)OC(C)C: FALSE
CCCCOC(=O)c1ccc(O)cc1: FALSE
Cc1occc1C(=O)Nc1ccc(C(=O)N2CCC(F)(F)/C(=C\C(=O)N3CCC(N4CCCCC4)CC3)c3ccccc32)cc1: FALSE

Req: GET /call?item= "Cc1ccc2oc(CN(Cc3ccccc3)C(=O)Nc3c(F)cc(F)cc3F)c(-c3ccc(Cl)cc3)c2c1" returns the recorded outcome of this test.
Resp: FALSE

Req: GET /call?item= "c1ccc(C[n+]2cccc3ccccc32)cc1" returns the recorded outcome of this test.
Resp: TRUE

Req: GET /call?item= "COc1cc(C(=O)NC2CCN(C)CC2)ccc1Nc1ncc2c(n1)N(C1CCCC1)CC(F)(F)C(=O)N2C" returns the recorded outcome of this test.
Resp: FALSE

Req: GET /call?item= "CC1(C)NC(=O)N(c2ccc([N+](=O)[O-])c(C(F)(F)F)c2)C1=O" returns the recorded outcome of this test.
Resp: FALSE

Req: GET /call?item= "Cc1cc2c(cc1C(F)(F)F)N(C(=O)Nc1ccc(Oc3cccnc3C)nc1)CC2" returns the recorded outcome of this test.
Resp: TRUE

Req: GET /call?item= "Cc1ccc(C(C)C)cc1" returns the recorded outcome of this test.
Resp: FALSE

----------
# Assay Target: Paired box protein Pax-6 (Homo sapiens) (UniProt P26367)
# Sequence (P26367 whole entry, looked up): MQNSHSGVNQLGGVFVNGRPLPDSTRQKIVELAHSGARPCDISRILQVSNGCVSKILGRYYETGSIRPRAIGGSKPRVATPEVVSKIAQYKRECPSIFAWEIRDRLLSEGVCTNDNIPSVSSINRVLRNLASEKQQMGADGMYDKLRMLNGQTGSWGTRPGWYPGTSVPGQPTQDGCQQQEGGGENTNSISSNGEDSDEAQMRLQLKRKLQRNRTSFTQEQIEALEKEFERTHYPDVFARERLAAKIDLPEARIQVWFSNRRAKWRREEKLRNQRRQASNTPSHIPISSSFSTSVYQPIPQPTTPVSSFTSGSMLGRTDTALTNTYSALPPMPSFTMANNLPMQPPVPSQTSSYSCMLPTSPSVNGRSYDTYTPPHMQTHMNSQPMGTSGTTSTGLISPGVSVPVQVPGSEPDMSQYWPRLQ
# Test: ATG_Pax6_CIS: Attagene CIS-FACTORIAL HepG2 Assay for human Paired Box 6 (PAX6) (AID 2282956)
# Recorded Conditions: HepG2 CIS-FACTORIAL PAX6 reporter transcription, RNA readout; actives raise or lower the signal
Calls of active or inactive are those of the source. Rule for the calls: active = hit-call score of the fitted dose curve at least 0.9, where 1 is the maximum; inactive = score below 0.9.
Allowed answers: True = active, False = inactive

OC12N=C(c3ccccc3)SC1Cc1cc(Cl)ccc12 (stereo not given): False
O=C(O)c1ccccc1C(=O)OCc1ccccc1: False
CCCCOC(=O)CC(CC(=O)OCCCC)(OC(C)=O)C(=O)OCCCC: False

Req: GET /call?item= "O=C1c2ccccc2C(=O)N1CCc1noc(-c2ccc(CN3CCCCCC3)s2)n1" returns the recorded outcome of this test.
Resp: False

Req: GET /call?item= "CC(C)(C)c1cc(/C=C2\SC(N)=NC2=O)cc(C(C)(C)C)c1O" returns the recorded outcome of this test.
Resp: True

Req: GET /call?item= "CCN(CC)C(=O)c1cc(S(=O)(=O)Cc2ccccc2)c(N2CCC(c3ccccc3)CC2)cc1N(CC)CCN(C)C" returns the recorded outcome of this test.
Resp: False

Req: GET /call?item= "CN(C)c1ccc(C(=C2C=CC(=[N+](C)C)C=C2)c2ccc(N(C)C)cc2)cc1" returns the recorded outcome of this test.
Resp: False

Req: GET /call?item= CN1C(=O)N(c2ccccc2Br)Cc2cnc(Nc3ccc4c(c3)OCC(CO)O4)nc21 (stereo not given) returns the recorded outcome of this test.
Resp: False

Req: GET /call?item= "CN(C[C@@H](CC[N+]12CCC(C3CCCCC3)(CC1)CC2)c1ccc(Cl)c(Cl)c1)C(=O)c1cc(C(F)(F)F)cc(C(F)(F)F)c1" returns the recorded outcome of this test.
Resp: False

Req: GET /call?item= "CCN(Cc1cccnc1)C(=O)c1cccc(Cl)c1[C@]1(C)C(=O)N(Cc2ccc(OC)cc2OC)c2ccc(Cl)cc21" returns the recorded outcome of this test.
Resp: True

Req: GET /call?item= "CCCCCCCCCC(=O)O" returns the recorded outcome of this test.
Resp: False

Req: GET /call?item= "Cc1c2ccccc2c(C)c2c1ccc1ccccc12" returns the recorded outcome of this test.
Resp: False

Req: GET /call?item= "c1ccc2ccccc2c1" returns the recorded outcome of this test.
Resp: False

Req: GET /call?item= "O=C=NCCCCCCN=C=O" returns the recorded outcome of this test.
Resp: False

Req: GET /call?item= "CCCC(=O)OCCC(C)C" returns the recorded outcome of this test.
Resp: False
